Hey, just so you know, these numbers are from ChEMBL document CHEMBL2413075.

Biological target: Sigma non-opioid intracellular receptor 1 (Rattus norvegicus, UniProt Q9R0C9)
Sequence (Q9R0C9 whole entry): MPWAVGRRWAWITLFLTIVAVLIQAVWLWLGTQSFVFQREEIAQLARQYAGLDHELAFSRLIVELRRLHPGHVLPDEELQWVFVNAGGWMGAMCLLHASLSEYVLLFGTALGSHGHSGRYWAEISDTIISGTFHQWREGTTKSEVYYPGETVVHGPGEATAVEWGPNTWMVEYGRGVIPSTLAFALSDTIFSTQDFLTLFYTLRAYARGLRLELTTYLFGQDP
Assay: Displacement of [3H](+)-pentazocine from sigma 1 receptor in rat liver membranes
Kindly supply the reported pKi values for the records listed here.
Note on pKi: it is the negative log10 of concentration, concentration in mol/L.

I would be grateful if you could share the reported pKi for CCC(=O)c1ccc2c(c1)sc(=O)n2CCCCCCN1CCCCCC1 . 7.98

I would be grateful if you could share the reported pKi for O=c1sc2ccccc2n1CCCCCCN1CCCCCC1 . 8.12

I would be grateful if you could share the reported pKi for CCCCc1ccc2c(c1)sc(=O)n2CCCN1CCCCCC1 . 8.66

I would be grateful if you could share the reported pKi for CCC(=O)c1ccc2c(c1)sc(=O)n2CCCCCN1CCCCCC1 . 7.91

I would be grateful if you could share the reported pKi for CCCc1ccc2c(c1)sc(=O)n2CCCN1CCCCCC1 . 8.85

I would be grateful if you could share the reported pKi for O=c1sc2ccccc2n1CCCCN1CCCCCC1 . 8.49

I would be grateful if you could share the reported pKi for CCCC(=O)c1ccc2c(c1)sc(=O)n2CCCN1CCCCCC1 . 8.59

I would be grateful if you could share the reported pKi for CCCC(=O)c1ccc2c(c1)sc(=O)n2CCCCN1CCCCCC1 . 8.32

I would be grateful if you could share the reported pKi for CCCCc1ccc2c(c1)sc(=O)n2CCCCN1CCCCCC1 . 8.72

I would be grateful if you could share the reported pKi for CCCC(=O)c1ccc2c(c1)sc(=O)n2CCCCCN1CCCCCC1 . 7.79

I would be grateful if you could share the reported pKi for O=c1sc2ccccc2n1CCCN1CCCCCC1 . 8.39

I would be grateful if you could share the reported pKi for O=c1sc2ccccc2n1CCN1CCCCCCC1 . 8.01

I would be grateful if you could share the reported pKi for CCC(=O)c1ccc2c(c1)sc(=O)n2CCN1CCCCCC1 . 8.35

I would be grateful if you could share the reported pKi for CCC(=O)c1ccc2c(c1)sc(=O)n2CCCN1CCCCCC1 . 8.43

I would be grateful if you could share the reported pKi for CCCc1ccc2c(c1)sc(=O)n2CCCCCN1CCCCCC1 . 8.34

I would be grateful if you could share the reported pKi for CCC(=O)c1ccc2c(c1)sc(=O)n2CCCCN1CCCCCC1 . 7.99

I would be grateful if you could share the reported pKi for O=c1sc2ccccc2n1CCN1CCCC1 . 6.24

I would be grateful if you could share the reported pKi for CCC(=O)c1ccc2c(c1)sc(=O)n2CCN1CCCC1 . 6.94
